Target: Human α2δ-1 subunit of Cav2.2 calcium channel (Homo sapiens, UniProt P54289)
Sequence (P54289 25-1103): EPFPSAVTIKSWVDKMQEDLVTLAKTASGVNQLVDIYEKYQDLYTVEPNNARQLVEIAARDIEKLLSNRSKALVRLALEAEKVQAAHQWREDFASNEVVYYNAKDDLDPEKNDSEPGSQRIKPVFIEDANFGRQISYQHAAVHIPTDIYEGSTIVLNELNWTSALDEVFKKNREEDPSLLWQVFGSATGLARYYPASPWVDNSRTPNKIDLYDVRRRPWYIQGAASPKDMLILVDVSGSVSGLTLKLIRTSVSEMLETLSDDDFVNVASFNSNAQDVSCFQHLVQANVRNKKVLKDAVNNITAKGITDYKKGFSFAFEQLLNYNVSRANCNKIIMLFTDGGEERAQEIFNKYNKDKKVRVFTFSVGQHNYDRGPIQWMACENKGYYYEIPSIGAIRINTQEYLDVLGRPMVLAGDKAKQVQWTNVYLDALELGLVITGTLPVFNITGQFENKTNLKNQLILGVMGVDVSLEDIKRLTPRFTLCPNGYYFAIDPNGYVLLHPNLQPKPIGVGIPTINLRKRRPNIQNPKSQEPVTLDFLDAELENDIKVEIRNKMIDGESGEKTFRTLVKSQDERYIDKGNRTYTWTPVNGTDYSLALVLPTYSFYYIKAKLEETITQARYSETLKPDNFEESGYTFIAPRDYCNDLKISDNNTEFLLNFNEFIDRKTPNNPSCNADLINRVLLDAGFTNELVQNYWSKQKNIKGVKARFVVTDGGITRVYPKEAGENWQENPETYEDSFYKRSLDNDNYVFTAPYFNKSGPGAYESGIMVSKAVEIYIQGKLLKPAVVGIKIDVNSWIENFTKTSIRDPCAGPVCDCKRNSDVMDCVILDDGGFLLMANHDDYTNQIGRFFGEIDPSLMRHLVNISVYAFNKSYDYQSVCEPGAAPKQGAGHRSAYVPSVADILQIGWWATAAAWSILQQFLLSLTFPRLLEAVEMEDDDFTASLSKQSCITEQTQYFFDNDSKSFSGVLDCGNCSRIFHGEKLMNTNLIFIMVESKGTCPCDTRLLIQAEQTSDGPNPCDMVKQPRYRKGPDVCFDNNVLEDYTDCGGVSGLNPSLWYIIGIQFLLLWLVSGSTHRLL
Experiment: Human α2δ-1 subunit of Cav2.2 calcium channel assay ([3H]-Gabapentin binding)
Settings: human α2δ-1 enriched membranes, 15 nM [3H]-Gabapentin; read-out: α2δ-1 binding
TEST READOUT: Ki

Report Ki for each item below.
1. CC(N)c1cc(Cc2ccc(NS(C)(=O)=O)cc2)n(-c2ccc(Cl)cc2Cl)n1 (stereo not shown) [Example 26]
2. COc1ccc(Cc2cc(CN)nn2Cc2ccccc2)cc1 [Example 13]
3. COc1ccc(Cc2cc(CN)nn2Cc2ccccc2Cl)cc1 [Example 14]
4. COc1ccc(C(C)(C)c2cc(C(C)N)nn2-c2ccc(Cl)cc2Cl)cc1 (stereo not shown) [Example 33]
5. CC(c1ccccc1)n1nc(CN)cc1Cc1ccc(O)cc1 (stereo not shown) [Example 49]

## Output
1. 0.5 to 3 µM
2. 0.5 to 3 µM
3. 0.5 to 3 µM
4. > 5 µM
5. > 5 µM

Report Ki for each item below.
1. NCc1cc(Cc2ccc(O)cc2)n(Cc2ccccc2Cl)n1 [Example 47]
2. COc1cc(Cl)ccc1-n1nc(C(C)N)cc1Cc1ccc(O)cc1 (stereo not shown) [Example 29]
3. COc1cccc(Cc2cc(CN)nn2-c2ccc(Cl)cc2Cl)c1 [Example 8]
4. CC(N)c1cc(C(C)(C)c2ccc(O)cc2)n(-c2ccc(Cl)cc2Cl)n1 (stereo not shown) [Example 55]

## Output
["0.5 to 3 µM", "> 5 µM", "0.5 to 3 µM", "0.5 to 3 µM"]

## Input Indicate the recorded Ki value for this compound: COc1ccc(Cc2cc(CN)nn2CC(C)C)cc1 [Example 11]
## Output 0.5 to 3 µM

====

Target: human μ-opioid receptor (Homo sapiens)
Construct: expressed in transfected cells; host or cells: CHO-K1
Assay: Human μ-opioid receptor radioligand assay ([3H]-DAMGO)
Assay type: binding
TEST READOUT: Ki

Observe how each entry below is paired with its result.
CCOc1ccc(-n2nc(CN)cc2Cc2ccc(O)cc2)c(Cl)c1 | < 100 nM
NCc1cc(Cc2cccc(O)c2)n(-c2ccc(Cl)cc2Cl)n1 | 100 to 500 nM
CC(C)(N)c1cc(Cc2ccc(O)cc2)n(-c2ccc(Cl)cc2Cl)n1 | < 100 nM

Report Ki for each item below.
1. NCCc1cc(Cc2ccc(O)cc2)n(-c2ccc(Cl)cc2Cl)n1
2. CCC(N)c1cc(Cc2ccc(O)cc2)n(-c2ccc(Cl)cc2Cl)n1 (centres unmarked)

## Output
1. < 100 nM
2. 100 to 500 nM

====

Target: Human α2δ-1 subunit of Cav2.2 calcium channel (Homo sapiens, UniProt P54289)
Assay: Human α2δ-1 subunit of Cav2.2 calcium channel assay ([3H]-Gabapentin binding)
TEST READOUT: Ki

NC(=O)CC(N)c1cc(Cc2ccc(O)cc2)n(-c2ccc(Cl)cc2Cl)n1 (centres unmarked) [Example 77] | > 5 µM

Report Ki for each item below.
1. NCc1cc(Cc2cccc(O)c2)n(-c2ccc(Cl)cc2Cl)n1 [Example 34]
2. NC(CO)c1cc(Cc2ccc(O)cc2)n(-c2ccc(Cl)cc2Cl)n1 (centres unmarked) [Example 71]

## Output
1: 0.5 to 3 µM; 2: > 5 µM

Report Ki for each item below.
1. CC(C)(N)c1cc(Cc2ccc(O)c(F)c2)n(-c2ccc(Cl)cc2Cl)n1 [Example 56]
2. CC(C)(N)c1cc(Cc2ccc(O)cc2)n(-c2ccc(Cl)cc2Cl)n1 [Example 57]

## Output
3 to 5 µM
3 to 5 µM

====

Target: Human α2δ-1 subunit of Cav2.2 calcium channel (Homo sapiens)
Assay: Human α2δ-1 subunit of Cav2.2 calcium channel assay ([3H]-Gabapentin binding)
Details: human α2δ-1 enriched membranes, 15 nM [3H]-Gabapentin; read-out: α2δ-1 binding
Method: Human α2δ-1 Subunit of Cav2.2 Calcium Channel Assay Human α2δ-1 enriched membranes (2.5 μg) were incubated with 15 nM of radiolabeled [3H]-Gabapentin in assay buffer containing Hepes-KOH 10 mM, pH 7.4. NSB (non specific binding) was measured by adding 10 μM pregabalin. […] Filter plates were dried at 60° C. for 1 hour and 30 μl of scintillation cocktail were added to each well before radioactivity reading. Readings were performed in a Trilux 1450 Microbeta radioactive counter (Perkin Elmer).
pKi: −log10 of the molar value.
TEST READOUT: pKi

Observe how each entry below is paired with its result.
COc1ccc(Cc2cc(CN)nn2-c2ccc(Cl)cc2)cc1 | 5.30 to 5.52
NCc1cc(Cc2ccc(O)cc2)n(Cc2ccc(Cl)cc2Cl)n1 | 5.52 to 6.30
COc1ccc(Cc2cc(CN)nn2Cc2ccc(Cl)cc2)cc1 | 5.52 to 6.30

Report pKi for each item below.
1. COc1ccc(Cc2cc(CN)nn2-c2ccc(F)cc2Cl)cc1
2. COc1ccc(Cc2cc(C(C)N)nn2-c2ccc(Cl)cc2Cl)cc1F (stereo not drawn)
3. COc1ccc(-n2nc(CN)cc2Cc2ccccc2)cc1

## Output
1: 5.52 to 6.30; 2: < 5.30; 3: 5.52 to 6.30

====

Biological target: human μ-opioid receptor (Homo sapiens, UniProt P35372)
Construct: expressed in transfected cells; host or cells: CHO-K1
Sequence (P35372 whole entry): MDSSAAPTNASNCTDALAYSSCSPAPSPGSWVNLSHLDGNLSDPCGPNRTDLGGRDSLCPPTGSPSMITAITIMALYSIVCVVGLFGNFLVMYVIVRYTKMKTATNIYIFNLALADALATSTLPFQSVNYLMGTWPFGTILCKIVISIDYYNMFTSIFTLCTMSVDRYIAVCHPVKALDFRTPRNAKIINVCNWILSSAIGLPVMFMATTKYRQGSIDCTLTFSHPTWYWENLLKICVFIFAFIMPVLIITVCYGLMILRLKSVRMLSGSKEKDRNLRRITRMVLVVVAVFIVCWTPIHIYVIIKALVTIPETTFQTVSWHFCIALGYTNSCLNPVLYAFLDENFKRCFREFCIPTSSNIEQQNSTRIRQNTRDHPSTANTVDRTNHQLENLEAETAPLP
Assay: Human μ-opioid receptor radioligand assay ([3H]-DAMGO)
Type: binding
TEST READOUT: Ki

COc1ccc(Oc2cc(CN)nn2-c2ccc(Cl)cc2Cl)cc1 | 100 to 500 nM
COc1ccc(-n2nc([C@@H](C)N)cc2Cc2ccc(O)cc2)c(Cl)c1 | 100 to 500 nM
C[C@@H](N)c1cc(Cc2ccc(O)cc2)n(-c2ccc(Cl)cc2Cl)n1 | < 100 nM
CC(C)(N)c1cc(Cc2ccc(O)c(F)c2)n(-c2ccc(Cl)cc2Cl)n1 | < 100 nM
NC(=O)CC(N)c1cc(Cc2ccc(O)cc2)n(-c2ccc(Cl)cc2Cl)n1 (stereo not drawn) | < 100 nM

Report Ki for each item below.
1. CC(CN)c1cc(Cc2ccc(O)cc2)n(-c2ccc(Cl)cc2Cl)n1 (stereo not drawn)
2. CC(N)Cc1cc(Cc2ccc(O)cc2)n(-c2ccc(Cl)cc2Cl)n1 (stereo not drawn)
3. NCc1cc(Cc2ccc(O)cc2)n(-c2ccc(F)cc2Cl)n1
4. COc1ccc(-n2nc([C@H](C)N)cc2Cc2ccc(O)cc2)c(Cl)c1

## Output
["< 100 nM", "< 100 nM", "100 to 500 nM", "100 to 500 nM"]

====

Would you mind telling me the reported Ki of each entry?
Target: Human α2δ-1 subunit of Cav2.2 calcium channel (Homo sapiens)
Assay: Human α2δ-1 subunit of Cav2.2 calcium channel assay ([3H]-Gabapentin binding)

Observe how each entry below is paired with its result.
COc1ccc(Oc2cc(CN)nn2-c2ccc(Cl)cc2Cl)cc1 | 3 to 5 µM
NC(CC(=O)O)c1cc(Cc2ccc(O)cc2)n(-c2ccc(Cl)cc2Cl)n1 (stereo not drawn) | > 5 µM
NCc1cc(Cc2ccc(O)cc2)n(-c2ccc(Cl)cc2Cl)n1 | 0.5 to 3 µM
NC(CN1CCCCC1)c1cc(Cc2ccc(O)cc2)n(-c2ccc(Cl)cc2Cl)n1 (stereo not drawn) | > 5 µM
COc1ccc(Cc2cc(CN)nn2-c2ccc(Cl)cc2Cl)cc1 | < 0.5 µM

Report Ki for each item below.
1. CC(N)c1cc(Cc2ccc(O)c(F)c2)n(-c2ccc(Cl)cc2Cl)n1 (stereo in doubt) [Example 64]
2. CCC(N)c1cc(Cc2ccc(O)cc2)n(-c2ccc(Cl)cc2Cl)n1 (stereo not drawn)
3. CCOc1ccc(-n2nc(CN)cc2Cc2ccc(O)cc2)c(Cl)c1
4. COc1ccc(-n2nc([C@@H](C)N)cc2Cc2ccc(O)cc2)c(Cl)c1

## Output
1: > 5 µM; 2: 0.5 to 3 µM; 3: 0.5 to 3 µM; 4: > 5 µM

====

Target: Human α2δ-1 subunit of Cav2.2 calcium channel (Homo sapiens)
Assay: Human α2δ-1 subunit of Cav2.2 calcium channel assay ([3H]-Gabapentin binding)
Method: Human α2δ-1 Subunit of Cav2.2 Calcium Channel Assay Human α2δ-1 enriched membranes (2.5 μg) were incubated with 15 nM of radiolabeled [3H]-Gabapentin in assay buffer containing Hepes-KOH 10 mM, pH 7.4. NSB (non specific binding) was measured by adding 10 μM pregabalin. […] Filter plates were dried at 60° C. for 1 hour and 30 μl of scintillation cocktail were added to each well before radioactivity reading. Readings were performed in a Trilux 1450 Microbeta radioactive counter (Perkin Elmer).
pKi: −log10 of the molar value.
TEST READOUT: pKi

Observe how each entry below is paired with its result.
NCc1cc(Cc2ccc(O)cc2)n(-c2ccc(F)cc2Cl)n1 [Example 42] | 5.52 to 6.30
CC(N)c1cc(Cc2ccc(O)cc2)n(C2CCCCC2)n1 (stereo not shown) [Example 65] | > 6.30
NCc1cc(Cc2ccc(O)cc2)n(-c2ccc(O)cc2Cl)n1 [Example 41] | < 5.30
COc1ccc(-n2nc(CN)cc2Cc2ccc(O)cc2)c(Cl)c1 [Example 37] | 5.52 to 6.30
C[C@H](N)c1cc(Cc2ccc(O)cc2)n(-c2ccc(Cl)cc2Cl)n1 [Example 61] | > 6.30
CC(CN)c1cc(Cc2ccc(O)cc2)n(-c2ccc(Cl)cc2Cl)n1 (stereo not shown) [Example 59] | < 5.30

Report pKi for each item below.
1. NCCc1cc(Cc2ccc(O)cc2)n(-c2ccc(Cl)cc2Cl)n1 [Example 58]
2. CCC(CN)c1cc(Cc2ccc(O)cc2)n(-c2ccc(Cl)cc2Cl)n1 (stereo not shown) [Example 60]
3. C[C@@H](N)c1cc(Cc2ccc(O)cc2)n(-c2ccc(Cl)cc2Cl)n1 [Example 62]
4. CCCC(N)c1cc(Cc2ccc(O)c(F)c2)n(-c2ccc(Cl)cc2Cl)n1 (stereo not shown) [Example 53]
5. COc1ccc(Cc2cc(CN)nn2-c2ccc(OC)cc2Cl)cc1 [Example 4]

## Output
["5.30 to 5.52", "< 5.30", "5.52 to 6.30", "> 6.30", "5.52 to 6.30"]
